- Test system: Escherichia coli TOP10;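 further: peptides expressed intracellularly from a pBAD plasmid library in pooled LB shake-flask culture, induced with 0.3% L-arabinose, DNA abundance read by NGS, three biological replicates, DESeq2 with apeglm shrinkage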
- ASSAY_REMARKS: shrunken log2 fold change of peptide-encoding DNA abundance (4.5 h post-induction vs induction); higher = less antimicrobial activity (less host growth inhibition)
- RUN_CONDITIONS: time post-induction: 4.5 h; library: site-saturation at positions 5, 18, 19, 20
Outcome label depends on shrunken log2 fold change relative to -0.08: at/above gives Satisfied, below gives Not satisfied.

RESIDUES | CLASS_ASSIGNMENT
RRIRIRPPRLPRPRPRPDPDPRP | Not satisfied
RRIRVRPPRLPRPRPRPKSCPRP | Not satisfied
RRIRYRPPRLPRPRPRPECLPRP | Not satisfied
RRIRCRPPRLPRPRPRPDIQPRP | Not satisfied
RRIRRRPPRLPRPRPRPQYCPRP | Not satisfied
RRIRVRPPRLPRPRPRPIESPRP | Satisfied
RRIRRRPPRLPRPRPRPDATPRP | Satisfied
RRIRRRPPRLPRPRPRPQLDPRP | Satisfied
RRIRCRPPRLPRPRPRPACTPRP | Satisfied
RRIRVRPPRLPRPRPRPALTPRP | Satisfied
RRIRARPPRLPRPRPRPYAMPRP | Satisfied
RRIRVRPPRLPRPRPRPAMWPRP | Satisfied
RRIRPRPPRLPRPRPRPWMLPRP | Not satisfied
RRIRPRPPRLPRPRPRPKERPRP | Satisfied
RRIRTRPPRLPRPRPRPWRIPRP | Satisfied
RRIRHRPPRLPRPRPRPILDPRP | Satisfied
RRIRHRPPRLPRPRPRPHRMPRP | Not satisfied
RRIRCRPPRLPRPRPRPGETPRP | Satisfied
RRIRVRPPRLPRPRPRPQYCPRP | Not satisfied
RRIRYRPPRLPRPRPRPWGCPRP | Not satisfied
RRIRTRPPRLPRPRPRPKLKPRP | Satisfied
RRIRRRPPRLPRPRPRPKFWPRP | Satisfied
RRIRTRPPRLPRPRPRPDWHPRP | Satisfied
RRIRGRPPRLPRPRPRPYNSPRP | Not satisfied
RRIRRRPPRLPRPRPRPPREPRP | Satisfied
RRIRMRPPRLPRPRPRPEVIPRP | Satisfied
RRIRVRPPRLPRPRPRPNYVPRP | Not satisfied
RRIRMRPPRLPRPRPRPQYRPRP | Not satisfied
RRIRRRPPRLPRPRPRPYAHPRP | Satisfied
RRIRFRPPRLPRPRPRPSQGPRP | Not satisfied
RRIRHRPPRLPRPRPRPQWNPRP | Not satisfied
RRIRHRPPRLPRPRPRPWMWPRP | Satisfied
RRIRIRPPRLPRPRPRPSGWPRP | Satisfied
RRIRHRPPRLPRPRPRPKPGPRP | Satisfied
RRIRNRPPRLPRPRPRPQYHPRP | Not satisfied
RRIRDRPPRLPRPRPRPLCLPRP | Satisfied
RRIRNRPPRLPRPRPRPFPWPRP | Not satisfied
RRIRPRPPRLPRPRPRPFVYPRP | Not satisfied
RRIRRRPPRLPRPRPRPMYFPRP | Not satisfied
RRIRFRPPRLPRPRPRPMSKPRP | Not satisfied
RRIRSRPPRLPRPRPRPLLPPRP | Satisfied
RRIRQRPPRLPRPRPRPFPTPRP | Satisfied
RRIRDRPPRLPRPRPRPPYWPRP | Satisfied
RRIRPRPPRLPRPRPRPITGPRP | Not satisfied
RRIRGRPPRLPRPRPRPTVDPRP | Satisfied
RRIRGRPPRLPRPRPRPLWEPRP | Satisfied
RRIRTRPPRLPRPRPRPNHWPRP | Satisfied
RRIRDRPPRLPRPRPRPNKEPRP | Satisfied
RRIRSRPPRLPRPRPRPAQGPRP | Satisfied
RRIRERPPRLPRPRPRPWFHPRP | Not satisfied
RRIRSRPPRLPRPRPRPCFLPRP | Not satisfied
RRIRWRPPRLPRPRPRPVKPPRP | Satisfied
RRIRLRPPRLPRPRPRPDFFPRP | Satisfied
RRIRMRPPRLPRPRPRPVQHPRP | Satisfied
RRIRARPPRLPRPRPRPMHPPRP | Satisfied
RRIRGRPPRLPRPRPRPMFNPRP | Not satisfied
